Item-by-item account of Activity
Test system: Cucumis sativus
method: Phytotoxic activity against Cucumis sativus (cucumber) seedlings assessed as radicle length at 5x10'-4 mol/l at 28 +/-1 degC after 48 hr by acid-washed sand based radicle elongation assay (reference value: 4.8 cm)
Type: functional
test.readout: Activity (cm)

>>> experimental_result("CCC1C(=O)C(CC)C23CC(C)CCC24OOC(C)(O4)C1O3 (mixture of isomers)")
2.1
>>> experimental_result("CCC12OC(C3OOC1O3)C1CCCCC2C1=O (mixture of isomers)")
2.1
>>> experimental_result("CC12OC(C3OOC1O3)C1CCCCC2C1=O (mixture of isomers)")
2.3
>>> experimental_result("O=C1[C@@H]2CCCC[C@@H]1[C@@H]1C=C[C@@H]2O1")
0.9

* * *

System: Cucumis sativus
method: Phytotoxic activity against Cucumis sativus (cucumber) seedlings assessed as germination at 5x10'-4 mol/l at 28 +/-1 degC after 48 hr by acid-washed sand based radicle elongation assay (reference value: 100%)
Assay type: functional
Item-by-item account of germination % at 500 µM
test.readout: germination % at 500 µM (%)

>>> experimental_result("CC12OC(C3OOC1O3)C1CCCCC2C1=O (mixture of isomers)")
70
>>> experimental_result("CC12OC(C)(C3OOC1O3)C1CCCCC2C1=O (mixture of isomers)")
100
>>> experimental_result("CC1CCC23OOC(C)(O2)C2OC3(C1)C(C)C(=O)C2C (mixture of isomers)")
93
>>> experimental_result("CC[C@@]12C=C[C@H](O1)[C@H]1CCCC[C@H]2C1=O")
100
>>> experimental_result("CC[C@@H]1C(=O)[C@@H](CC)[C@@]23CC(C)CCC2=C(C)[C@H]1O3 (stereo not given in full)")
96
>>> experimental_result("CCC12OC(C3OOC1O3)C1CCCCC2C1=O (mixture of isomers)")
96
>>> experimental_result("O=C1[C@@H]2CCCC[C@@H]1[C@@H]1C=C[C@@H]2O1")
90
>>> experimental_result("CCC1C(=O)C(CC)C23CC(C)CCC24OOC(C)(O4)C1O3 (mixture of isomers)")
96
>>> experimental_result("CC1=C2CCC(C)C[C@@]23O[C@H]1[C@H](C)C(=O)[C@H]3C (stereo not given in full)")
96
>>> experimental_result("CC1=C[C@@H]2O[C@]1(C)[C@H]1CCCC[C@H]2C1=O")
96
>>> experimental_result("O=C1C2CCCCC1C1OC2C2OOC1O2")
100
>>> experimental_result("C[C@@]12C=C[C@H](O1)[C@H]1CCCC[C@H]2C1=O")
95
>>> experimental_result("C[C@@]12C=C[C@](C)(O1)[C@H]1CCCC[C@H]2C1=O")
82
>>> experimental_result("CC12OOC(O1)C1OC2(C)C2CCCCC1C2=O (mixture of isomers)")
100
>>> experimental_result("CC(=O)[C@@]12C=C[C@H](O1)[C@H]1CCCC[C@H]2C1=O")
86

* * *

Test system: Sorghum bicolor
method: Phytotoxic activity against Sorghum bicolor assessed as weight of roots at 5.0 x 10^-4 mol/l measured 15 days after seed sowing under greenhouse trials (reference value: 14.0 mg)
Type: functional
test.readout: Activity (mg)

>>> experimental_result("CC[C@@H]1C(=O)[C@@H](CC)[C@@]23CC(C)CCC2=C(C)[C@H]1O3 (stereo not given in full)")
12.7
>>> experimental_result("CCC12OC(C3OOC1O3)C1CCCCC2C1=O (mixture of isomers)")
10.2
>>> experimental_result("CC1=C[C@@H]2O[C@]1(C)[C@H]1CCCC[C@H]2C1=O")
7.1
>>> experimental_result("CC(=O)[C@@]12C=C[C@H](O1)[C@H]1CCCC[C@H]2C1=O")
10.7
>>> experimental_result("C[C@@]12C=C[C@](C)(O1)[C@H]1CCCC[C@H]2C1=O")
11.9
>>> experimental_result("CC1CCC23OOC(C)(O2)C2OC3(C1)C(C)C(=O)C2C (mixture of isomers)")
12.7
>>> experimental_result("CC1=C2CCC(C)C[C@@]23O[C@H]1[C@H](C)C(=O)[C@H]3C (stereo not given in full)")
13.1
>>> experimental_result("CC12OC(C)(C3OOC1O3)C1CCCCC2C1=O (mixture of isomers)")
11.5
>>> experimental_result("O=C1C2CCCCC1C1OC2C2OOC1O2")
10.3
>>> experimental_result("O=C1[C@@H]2CCCC[C@@H]1[C@@H]1C=C[C@@H]2O1")
13.1
>>> experimental_result("CCC1C(=O)C(CC)C23CC(C)CCC24OOC(C)(O4)C1O3 (mixture of isomers)")
13.1
>>> experimental_result("CC12OOC(O1)C1OC2(C)C2CCCCC1C2=O (mixture of isomers)")
9.2
>>> experimental_result("CC12OC(C3OOC1O3)C1CCCCC2C1=O (mixture of isomers)")
12.7
>>> experimental_result("C[C@@]12C=C[C@H](O1)[C@H]1CCCC[C@H]2C1=O")
9.7
>>> experimental_result("CC[C@@]12C=C[C@H](O1)[C@H]1CCCC[C@H]2C1=O")
7.7
